Target: farnesyl protein transferase (Homo sapiens, UniProt P49354+P49356)
Sequence (P49356 whole entry, one chain of several): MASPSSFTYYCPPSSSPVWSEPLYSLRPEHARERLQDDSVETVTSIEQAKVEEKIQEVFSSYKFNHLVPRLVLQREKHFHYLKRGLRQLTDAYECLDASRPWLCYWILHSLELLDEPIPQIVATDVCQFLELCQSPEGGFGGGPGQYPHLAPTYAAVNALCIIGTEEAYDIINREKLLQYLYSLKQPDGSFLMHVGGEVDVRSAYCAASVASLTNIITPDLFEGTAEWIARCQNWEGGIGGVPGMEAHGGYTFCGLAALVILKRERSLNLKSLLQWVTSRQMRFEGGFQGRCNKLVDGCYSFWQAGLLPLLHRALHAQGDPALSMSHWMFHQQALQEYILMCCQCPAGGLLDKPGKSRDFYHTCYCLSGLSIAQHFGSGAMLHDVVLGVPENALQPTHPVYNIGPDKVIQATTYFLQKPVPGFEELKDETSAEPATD
Assay: FPT inhibition, in vitro enzyme assay
test-readout: IC50 (nM)
Form entry: value (nM) — number only.

**Query** Query: IC50; subject: CC1(CC(=O)N2CCC([C@H]3c4ncc(Br)cc4CCc4cc(Cl)cc(Br)c43)CC2)CCN(S(C)(=O)=O)CC1 [Example 1]
**Result** 19

====

System: COS Cell
Assay: COS Cell-Based Assay
test-readout: pIC50
Entry type: numeric. Quantity: pIC50, the -log10 of concentration in molar units.

**Query** Notebook: pull reported pIC50 for COS Cell, entry CC1(CC(=O)N2CCC([C@H]3c4ncc(Br)cc4CCc4cc(Cl)cc(Br)c43)CC2)CCN(S(C)(=O)=O)CC1
**Result** 7.66

FYI, the data here is from patent US6051582A.
